The measurements presented in this section are drawn from a melting point compilation (Tetko et al.).

measured_metric: melting point

Quick check: melting point of `Cc1cc(C(=O)O)c(C(F)(F)F)o1` ?
124 to 126 °C

More entries:
Quick check: melting point of `BrCC=Cc1ccccc1` ?
26 to 32 °C

Quick check: melting point of `c1ccc2c(c1)OCCOCCNCCOCCO2` ?
147 to 149 °C

----------
The entries below come with measured melting point values attached.

Quick check: melting point of `O=C1NC(=S)NC(=O)C1=NNc1ccc(C(=O)O)cc1` ?
340 °C

More entries:
Quick check: melting point of O=C(OCC1OC(Oc2ccccc2CO)C(O)C(O)C1O)c1ccccc1 (stereo not given) ?
180 °C

Quick check: melting point of `O=[N+]([O-])c1ccc2c(c1)=[N+]([O-])C1(CCCC1)[N+]=2[O-]` ?
148 to 150 °C

Quick check: melting point of `O=C(c1ccc(C(F)(F)F)cc1)c1cccc(C(F)(F)F)c1` ?
94 to 98 °C

Quick check: melting point of `Nc1nc[nH]c(=O)n1` ?
300 °C

----------
The entries below come with measured melting point values attached.

Quick check: melting point of `Oc1c2cccc1Cc1cccc(c1O)Cc1cccc(c1O)Cc1cccc(c1O)Cc1cccc(c1O)Cc1cccc(c1O)C2` ?
417 to 418 °C

Quick check: melting point of `CN=C(N)c1cc(C(C)(C)C)c(O)c(C(C)(C)C)c1` ?
280 to 281 °C

Attention now turns to another entry.
Quick check: melting point of `O=Cc1ccc(Cn2cncn2)cc1` ?
73 to 75 °C

----------
The entries below come with measured melting point values attached.
The figure you give is taken to be in °C; do not add the unit.

Some solved entries appear below for comparison.
Quick check: melting point of CCC1(O)CCC2C3CCC4=CCCCC4C3CCC21C (configuration not stated) ?
77

Quick check: melting point of CC12CCC3C(CCC4CCCCC43C)C1CCC2=O (configuration not stated) ?
121

Attention now turns to another entry.
Quick check: melting point of `C=Cc1ccc(Cl)cc1` ?
15.9

----------
measured_metric: melting point (°C)
The figure you give is taken to be in °C; do not add the unit.

Quick check: melting point of `Nc1nn2c(-c3ccccc3)cc(=O)[nH]c2c1/N=N/c1ccccc1` ?
265

Quick check: melting point of `C(=Cc1ccccn1)c1ccccn1` ?
118

Quick check: melting point of `O=C(NCCN=Cc1ccccn1)C(=O)NCc1ccccn1` ?
125

Quick check: melting point of `CCCN(C(C)=O)c1ccccc1` ?
49

Quick check: melting point of `COC(=O)c1cc(Br)c(Br)s1` ?
79

More entries:
Quick check: melting point of `Clc1cc(Cl)c(Cl)c(Br)c1` ?
59

Quick check: melting point of CC(NC(=O)C(C(F)(F)F)C(F)(F)F)c1ccccc1 (configuration not stated) ?
137

Quick check: melting point of `COc1ccc(N)cc1C(F)(F)F` ?
59

Quick check: melting point of `CCOP(=S)(OCC)Oc1ccc2c(C)c(Cl)c(=O)oc2c1` ?
95

----------
The entries below come with measured melting point values attached.

Quick check: melting point of `CCOC(=O)c1sc(SCc2ccccc2)c2c1CC(C)(C)CC2=O` ?
119 to 122 °C

Quick check: melting point of `Cc1ccc(-n2cccc2C=O)cc1` ?
48 to 50 °C

Attention now turns to another entry.
Quick check: melting point of `CCOC(=O)c1cnc2cc(C)nn2c1C` ?
100 to 101 °C

----------
The entries below come with measured melting point values attached.

Quick check: melting point of `O=C(Cl)c1cc2ccccc2o1` ?
54 to 55 °C

More entries:
Quick check: melting point of `Nc1ccc(-c2ccc3nn(-c4ccccc4)nc3c2)cc1` ?
224 to 225 °C

Quick check: melting point of Cc1ccccc1C1(C#N)Cc2ccccc2C(=O)O1 (stereo not given) ?
121 to 123 °C

Quick check: melting point of COc1cc2c(cc1OC)C(c1ccc(C)cc1)N(C(C)=O)CC2 (stereo not given) ?
183 to 185 °C

Quick check: melting point of `CC(=O)OCCOc1cc(OC(C)=O)c2c(=O)c(OC(C)=O)c(-c3ccc(OCCOC(C)=O)c(OCCOC(C)=O)c3)oc2c1` ?
96 to 97 °C

----------
The entries below come with measured melting point values attached.

Some solved entries appear below for comparison.
Quick check: melting point of `OCC[C@@H](O)c1ccccc1` ?
62 to 66 °C

Quick check: melting point of `Cc1ccc(Sc2ccc([N+](=O)[O-])cc2C=O)cc1` ?
157 to 158 °C

More entries:
Quick check: melting point of `CSC(SC)=C(C#N)C(=O)c1cccc(C)c1` ?
53 to 55 °C

----------
measured_metric: melting point

Some solved entries appear below for comparison.
Quick check: melting point of `CC(=O)Oc1c(C)cc(O)c(C)c1C` ?
108 to 109 °C

Quick check: melting point of `NC(=S)Nc1ccc(Cl)c(Cl)c1` ?
210 to 213 °C

Quick check: melting point of `Brc1cc(Br)c(Oc2ccccc2)c(Br)c1` ?
85 to 86 °C

More entries:
Quick check: melting point of `CC(C)(C)NC(=S)NC(C)(C)C` ?
168 to 171 °C

Quick check: melting point of `O=S1(=O)Cc2cccc3cccc(c23)C1` ?
238 to 240 °C

Quick check: melting point of `Cc1ccc(-c2cc(N)[nH]n2)cc1` ?
153 to 154 °C

Quick check: melting point of `NNC(=S)Nc1ccc(F)cc1` ?
171 to 172 °C

Quick check: melting point of `Cc1oc(-c2ccccc2)nc1CCO` ?
72 to 75 °C

----------
Label class 0 if melting point falls below 100 °C; label class 1 in every other case.

Answered cases to consult:
Would you say CC1=CC=CC2(C)Cc3ccccc3C(=O)N12 (stereo not drawn) shows melting point at minimum 100 °C?
class 1

Would you say `CN(C)c1nc(N(C)C)nc(N(C)C)n1` shows melting point at minimum 100 °C?
class 1

Would you say `c1nnn[nH]1` shows melting point at minimum 100 °C?
class 1

Would you say `COC(=O)C(C#N)=Cc1cc(Br)c(O)c(OC)c1` shows melting point at minimum 100 °C?
class 1

Would you say `FC(F)(F)C(F)(F)C(F)(F)C(F)(F)F` shows melting point at minimum 100 °C?
class 0

Would you say `CC(=O)CCc1oc2ccc([N+](=O)[O-])cc2c1-c1ccc(C)o1` shows melting point at minimum 100 °C?
class 1

Would you say `Cn1c(=O)c(C2=NNC(=O)C2=Cc2cccc([N+](=O)[O-])c2)c(O)c2ccccc21` shows melting point at minimum 100 °C?
class 1

Would you say Cc1ccc(C)c2c1C(=O)N(C)C2O (stereo not drawn) shows melting point at minimum 100 °C?
class 1

Would you say `OCC(CO)(CO)COCC(CO)(CO)COCC(CO)(CO)CO` shows melting point at minimum 100 °C?
class 1

Would you say CC(=O)OC1CCC2(C)C(CCC3(C)C2C(=O)C=C2C4CC(C)(C(=O)O)CCC4(C)CCC23C)C1(C)C (stereo not drawn) shows melting point at minimum 100 °C?
class 1

More entries:
Would you say `ON=C(Cc1ccccc1)c1cccc2ccccc12` shows melting point at minimum 100 °C?
class 1

Would you say `Nc1c(C(=O)O)cnc2c(C(=O)O)cnn12` shows melting point at minimum 100 °C?
class 1

Would you say `CCOC(=O)CCCCCCCCCCCCCCCCC(=O)OCC` shows melting point at minimum 100 °C?
class 0

Would you say `c1ccc(C2OCCCO2)cc1` shows melting point at minimum 100 °C?
class 0

Would you say `Cc1c2c(c(CCl)c3c1CC3)CC2` shows melting point at minimum 100 °C?
class 0

Would you say `Clc1nncc2ccccc12` shows melting point at minimum 100 °C?
class 1

Would you say `O=S(=O)(c1ccccc1)c1ccsc1` shows melting point at minimum 100 °C?
class 1

Would you say `Nc1ccc(-n2cccc2)cc1` shows melting point at minimum 100 °C?
class 0

----------
Peptide text beside a SMILES is read from it.
measured_metric: melting point (°C)
The figure you give is taken to be in °C; do not add the unit.

Some solved entries appear below for comparison.
Quick check: melting point of `OC(CCN1CCCCC1)(c1ccccc1)c1ccccc1` ?
120

Quick check: melting point of CCC1=C(C)CN(C(=O)NCCc2ccc(S(=O)(=O)NC(=O)NC3CCC(C)CC3)cc2)C1=O (stereo unspecified) ?
207

Quick check: melting point of CC(=O)C(C(=O)c1ccccc1)c1cc(Cl)c([N+](=O)[O-])cc1[N+](=O)[O-] (stereo unspecified) ?
131

Quick check: melting point of `CC(O)=NNC(N)=O` ?
165

Quick check: melting point of COc1ccc(C2Cc3ccccc3C(C)(O)O2)cc1 (stereo unspecified) ?
102

Quick check: melting point of `O=C1CC(=O)N(c2ccccc2)N1` ?
191

Quick check: melting point of `O=S(=O)(Cl)c1cc(Cl)ccc1Cl` ?
38

Quick check: melting point of `CCCCCCOC(=O)c1ccccc1C(=O)OCCCCCC` ?
-58

More entries:
Quick check: melting point of C#CC(C)(O)CC (stereo unspecified) ?
30.5

Quick check: melting point of `Fc1ccc(-c2ccno2)cc1` ?
55

Quick check: melting point of `CC(C)(C)OC(=O)N[C@H](Cc1ccc(F)cc1)C(=O)O` ?
130

Quick check: melting point of CC[C@H](C)[C@H](NC(=O)CN)C(=O)O (H-Gly-Ile-OH) ?
248

Quick check: melting point of Nc1nc(NC2CC2)c2ncn(C3C=CC(CO)C3)c2n1 (stereo unspecified) ?
165
